From: patent US20160122421A1

This section presents binders with their documented Kd values.
- assay system: T1, eTau 2
- T1 construct: member of the group m9
- T1 polypeptide: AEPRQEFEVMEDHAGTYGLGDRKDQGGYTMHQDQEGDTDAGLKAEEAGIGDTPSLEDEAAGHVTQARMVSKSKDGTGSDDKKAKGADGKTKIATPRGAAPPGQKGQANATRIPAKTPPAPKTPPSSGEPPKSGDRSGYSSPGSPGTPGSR
- protocol: relative binding affinity, method not named (Table 4)
Give just the number in nM; leave the unit off.

[ask] Requested read-out: Kd. Entry: VH1/Vk1 (antibody, V domains shown, member of the group m7; also called humanized IPN002 variant VH1/Vk1) VH: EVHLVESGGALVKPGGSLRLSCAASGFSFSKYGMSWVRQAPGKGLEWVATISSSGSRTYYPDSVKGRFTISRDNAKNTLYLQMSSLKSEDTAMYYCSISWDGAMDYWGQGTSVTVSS VL: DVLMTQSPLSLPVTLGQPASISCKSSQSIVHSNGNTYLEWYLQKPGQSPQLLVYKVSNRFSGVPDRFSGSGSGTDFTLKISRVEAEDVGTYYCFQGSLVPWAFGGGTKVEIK
[reply] 0.465

[ask] Please do the same for VH3/Vk4 (antibody, V domains shown, member of the group m7; also called humanized IPN002 variant VH3/Vk4) VH: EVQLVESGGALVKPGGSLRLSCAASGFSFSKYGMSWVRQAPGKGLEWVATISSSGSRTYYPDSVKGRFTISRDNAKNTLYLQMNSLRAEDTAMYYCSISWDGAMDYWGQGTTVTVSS VL: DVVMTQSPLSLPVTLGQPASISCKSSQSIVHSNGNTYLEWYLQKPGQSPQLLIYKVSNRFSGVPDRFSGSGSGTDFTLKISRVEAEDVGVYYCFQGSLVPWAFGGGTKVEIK as well.
[reply] 0.447

[ask] Please do the same for VH1/Vk2 (antibody, V domains shown, member of the group m7; also called humanized IPN002 variant VH1/Vk2) VH: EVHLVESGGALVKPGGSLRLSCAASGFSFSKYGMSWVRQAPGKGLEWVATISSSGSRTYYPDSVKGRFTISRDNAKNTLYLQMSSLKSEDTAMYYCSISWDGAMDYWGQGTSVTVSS VL: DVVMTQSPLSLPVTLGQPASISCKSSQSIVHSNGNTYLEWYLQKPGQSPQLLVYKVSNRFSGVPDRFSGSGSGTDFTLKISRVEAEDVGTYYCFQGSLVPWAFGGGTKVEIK as well.
[reply] 0.361
